Source listed as patent US10259810B2.

Biological target: ΔF508-CFTR (Homo sapiens, UniProt P13569, DEL508-508)
Construct: host or cells: CFBE41o-, doxycycline-inducible
Sequence (P13569 with tags, fused parts or gaps DEL508-508): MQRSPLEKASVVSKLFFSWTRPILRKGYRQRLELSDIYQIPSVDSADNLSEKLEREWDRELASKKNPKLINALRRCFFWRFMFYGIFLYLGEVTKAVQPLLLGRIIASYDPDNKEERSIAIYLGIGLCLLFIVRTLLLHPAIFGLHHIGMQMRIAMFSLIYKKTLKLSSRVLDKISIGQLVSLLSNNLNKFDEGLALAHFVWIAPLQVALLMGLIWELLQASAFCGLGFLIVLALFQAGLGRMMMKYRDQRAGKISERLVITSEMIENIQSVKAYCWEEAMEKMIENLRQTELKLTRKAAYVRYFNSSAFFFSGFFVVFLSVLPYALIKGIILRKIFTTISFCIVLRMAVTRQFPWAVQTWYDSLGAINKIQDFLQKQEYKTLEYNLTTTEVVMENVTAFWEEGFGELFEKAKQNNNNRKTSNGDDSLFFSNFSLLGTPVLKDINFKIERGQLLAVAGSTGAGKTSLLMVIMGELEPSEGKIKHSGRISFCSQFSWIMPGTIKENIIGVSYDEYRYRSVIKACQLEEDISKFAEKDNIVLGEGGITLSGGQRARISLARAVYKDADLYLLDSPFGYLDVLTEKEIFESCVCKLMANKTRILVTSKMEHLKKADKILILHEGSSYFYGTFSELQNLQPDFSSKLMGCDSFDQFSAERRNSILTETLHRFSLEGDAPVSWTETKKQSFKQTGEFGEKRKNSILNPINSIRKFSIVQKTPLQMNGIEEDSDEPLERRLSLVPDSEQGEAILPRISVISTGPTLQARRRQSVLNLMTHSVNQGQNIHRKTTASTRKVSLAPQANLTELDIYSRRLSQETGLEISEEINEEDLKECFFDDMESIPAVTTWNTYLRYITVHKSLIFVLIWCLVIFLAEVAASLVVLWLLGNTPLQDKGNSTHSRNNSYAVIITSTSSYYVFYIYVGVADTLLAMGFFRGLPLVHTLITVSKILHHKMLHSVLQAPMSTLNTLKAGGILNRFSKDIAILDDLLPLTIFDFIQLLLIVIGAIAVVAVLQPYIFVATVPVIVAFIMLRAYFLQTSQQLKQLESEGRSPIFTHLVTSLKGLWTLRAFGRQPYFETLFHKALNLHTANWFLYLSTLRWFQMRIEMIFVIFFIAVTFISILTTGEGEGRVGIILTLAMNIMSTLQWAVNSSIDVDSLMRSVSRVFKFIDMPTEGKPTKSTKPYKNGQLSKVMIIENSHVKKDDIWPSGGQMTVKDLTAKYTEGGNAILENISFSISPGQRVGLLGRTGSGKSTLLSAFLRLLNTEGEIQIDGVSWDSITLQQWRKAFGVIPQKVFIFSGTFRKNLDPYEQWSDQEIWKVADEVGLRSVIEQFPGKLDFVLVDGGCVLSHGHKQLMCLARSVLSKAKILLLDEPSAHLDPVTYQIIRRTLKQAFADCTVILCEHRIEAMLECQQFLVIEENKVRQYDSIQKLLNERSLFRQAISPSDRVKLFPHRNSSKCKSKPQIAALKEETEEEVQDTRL
Assay: CFTR cell surface levels using HRP-tagged ΔF508-CFTR expressing CFBE cells, intrinsic corrector capacity
Assay type: cell-based
Design: concentration or dose not given beside the values
Conditions: HRP-tagged ΔF508-CFTR expressing CFBE41o- cells; compound alone (intrinsic corrector capacity); 20 hours at 33° C.
Recorded % Activation for the following molecules
Field format: number, assumed %, no unit text.

Recorded % Activation, per entry:
| MOLECULE | % Activation, % |
| --- | --- |
| CN(C)S(=O)(=O)NC(=O)c1cc(-c2ccc(N3CCN(C4CC4)CC3)nc2)c2c(C3CCC3)nn(C3CCCCC3)c2n1 | 125.1 |
| CN(C)S(=O)(=O)NC(=O)c1cc(N2CCC3C(CCN3C3CCC3)C2)c2c(C3CCC3)nn(-c3ccc(F)cc3)c2n1 (centres unmarked) | 206.6 |
| CCS(=O)(=O)NC(=O)c1cc(N2CCCCC2)c2c(C(C)C)nn(-c3cccc(C)c3)c2n1 | 233.9 |
| CN(C(=O)c1cc(N2CCC(N3CCOCC3)CC2)c2c(C3CCC3)nn(-c3ccccc3)c2n1)S(C)(=O)=O | 102.63 |
| C#CCCS(=O)(=O)NC(=O)c1cc(N2CCC(N3CCOCC3)CC2)c2c(C3CCC3)nn(-c3ccc(F)cc3)c2n1 | 341.4 |
| COCC1CCN(c2cc(C(=O)NS(=O)(=O)NC3COC3)nc3c2c(C2CCC2)nn3-c2ccc(F)cc2)CC1 | 389.5 |
| CN(C)S(=O)(=O)NC(=O)c1cc(N2CCC(N3CCC(C(F)(F)F)C3)CC2)c2c(C3CCC3)nn(-c3ccc(F)cc3)c2n1 (centres unmarked) | 260.4 |
| CCCN(C)S(=O)(=O)NC(=O)c1cc(OCC2CCOCC2)c2c(C3CCC3)nn(-c3ccccc3)c2n1 | 113.7 |

Entry "CCOC(=O)N1CCC(c2cc(C(=O)NS(C)(=O)=O)nc3c2c(C(C)C)nn3-c2ccc(F)cc2)CC1" has what % Activation?
199.9

So what does the record say about % Activation for "CC(C)c1nn(-c2cccc(N3CC(O)C3)c2)c2nc(C(=O)NS(C)(=O)=O)cc(-c3ccc(N4CCOCC4)cc3)c12" ?
258.1

# get_value(readout='% Activation', item= "COCC1CCN(c2cc(C(=O)NS(C)(=O)=O)nc3c2c(C(C)C)nn3-c2cccc(N(C)C)c2)CC1" )
531.6

Please report the recorded % Activation for "CCS(=O)(=O)NC(=O)c1cc(-c2cnc(N(C)C)nc2)c2c(C3CN(C(=O)OC)C3)nn(C3CCCCC3)c2n1" .
75.755

Field request: % Activation | item: "CC(C)Oc1nn(C2CCCCC2)c2nc(C(=O)NS(=O)(=O)N(C)C)cc(-c3ccc(CN4CCCC4)cc3)c12"
162.5

Which % Activation value is on record for "CC(C)c1nn(-c2cccc(N(C)C)c2)c2nc(C(=O)NS(=O)(=O)CCCN=[N+]=[N-])cc(-c3ccc(N=[N+]=[N-])cc3)c12" ?
239.4
